Test: yeast display, Sf9 membrane polyspecificity reagent, FACS + sequencing; frameworks hold sequencing errors

{"item sequence": "QVQLVESGGGLVQAGGSLRLSCAASGSIFVPYAMGWYRQAPGKERELVAAISSRGGSTYYADSVKGRFTISRDTAKNTVYLQMNSLKPEDTAVYYCNTEISRNYYWALYGYWGQGTQVTVSS", "polyreactivity (PSR sort gate)": "low polyreactivity"}
{"item sequence": "QVQLVESGGGLVQAGGSLRLTSAASGSIFQPYAMGWYRQAPVKERELVASIRGSAGSTHYADSVKGRFTISRDNAKNTVYLQMNSLKPEDTAVYYCAARAVASHFSPRLYGYWGQGTQVTVSS", "polyreactivity (PSR sort gate)": "high polyreactivity"}
{"item sequence": "QVQLVESGGGLVQAGGSLRLSWAASGSTFRNYAMGWYRQAPGKEREFVAAISRSGGSTYYADSVKGRFTISRDNANNPVYLQMISLKPEETAVYYCNKESFWGPDNYWGQGTQETVSS", "polyreactivity (PSR sort gate)": "high polyreactivity"}
{"item sequence": "QVQLVESGGGLVQAGGSLRLSCAASGLTFSSYTMGWYRQAPGKERELVAAISSGGSTYYADSVKGRFTISRDNAKNTVYLQMNSLKPEDTAVYYCAAAFRYTPLSDHGYWGQGTQVTVSS", "polyreactivity (PSR sort gate)": "high polyreactivity"}
{"item sequence": "QVQLVESGGGLVQAGGSLRLSCAASGFTLYWNAMGWYRPAPGTERELVAGITNGGDTYYADSVKGRFTISRDNAKNTVYLQMNSLKPEDTAVYYCNVDPVYYRFHSSLSVIPGYDYWGQGTQVTVSS", "polyreactivity (PSR sort gate)": "low polyreactivity"}
{"item sequence": "QVQLVESGGGLVQAGGSLRLSCAASGYTFGVYVMGWYREAPGKERELVAAISGSTYYADSVKGRFTISRDNAKNTVYVQMNSLKPEDTAVYYCAAESYFFSPRTREKFDYWGQGTQVTVSS", "polyreactivity (PSR sort gate)": "low polyreactivity"}

###

Assay: yeast display, Sf9 membrane polyspecificity reagent, FACS + sequencing; frameworks hold sequencing errors

{"item sequence": "QVQLVESGGGLVQAGGSLRLSCAASGFTIWRNDMGWYRQAPGKERELVAVISTAGRTYYADSVKGRFTISRDNAKITVYLQMNSLKPEDTAVYYCAKRSYSKDQPRYGYWGQGTQVTVSS", "polyreactivity (PSR sort gate)": "low polyreactivity"}
{"item sequence": "QVQLVESGGGLVQAGGSLRLSCAASGRTFRPYAMGWYRQAPGKEMELVAAIDSSGTSTYYADSVKGRFTISRDTAKNTVYLQMNSLKPEDTAVYYCAKAWPDHWYSRYDYWGQGTQLTVSS", "polyreactivity (PSR sort gate)": "low polyreactivity"}
{"item sequence": "QVQLVESGGGLVQAGGSLRLSCAASGSIFSYYAMGWYRQAPGKERELVASITYSGGSTYYADSVKGRFTISRDNAKNTVYLQMNSLKPEDTAVYYCAAPLAYEGDYWGQGTQVTVSS", "polyreactivity (PSR sort gate)": "low polyreactivity"}
{"item sequence": "QVQLVESGGGLVQAGGSLRLSCAASGFTFASYVMGWYRQAPGKERELVAAISYSGGYTYYADSVKGRFTISRDNAKNTVYLQMNSLKPEDTAVYYCNARYLQGYSGRYGYWGQGTQVTVSS", "polyreactivity (PSR sort gate)": "high polyreactivity"}
{"item sequence": "QVQLVESGGGLVQAGGSLRLSCAASGRIFTDNAMGWYRQEPGKERELVAAIRGSGSSTYYADSVKGRFTISRDNAKNTVYLQMNSLKPEDTAVYYCAARRAVYRGNYWGQGTQVTVSS", "polyreactivity (PSR sort gate)": "high polyreactivity"}

Sourced from the nanobody polyreactivity screen of Harvey et al. (2022)
